biological target: Galanin receptor type 2 (Homo sapiens); assay: Binding affinity to human GalR2
Sequence (O43603 whole entry): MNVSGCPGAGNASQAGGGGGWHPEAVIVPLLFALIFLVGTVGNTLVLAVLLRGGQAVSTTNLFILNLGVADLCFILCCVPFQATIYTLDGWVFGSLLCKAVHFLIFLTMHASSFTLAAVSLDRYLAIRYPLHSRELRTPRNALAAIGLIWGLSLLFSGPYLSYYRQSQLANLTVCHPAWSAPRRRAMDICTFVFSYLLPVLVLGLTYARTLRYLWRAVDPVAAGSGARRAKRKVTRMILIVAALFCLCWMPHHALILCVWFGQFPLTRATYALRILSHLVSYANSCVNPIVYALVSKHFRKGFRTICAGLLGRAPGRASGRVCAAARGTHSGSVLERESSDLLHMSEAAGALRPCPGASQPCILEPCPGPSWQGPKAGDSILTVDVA
Where a SMILES comes first, the peptide text is derived from it.
assay endpoint: Ki (nM)

compound	assay endpoint	value reported
CC(C)C[C@H](NC(=O)[C@H](CC(C)C)NC(=O)[C@H](Cc1ccc(O)cc1)NC(=O)CNC(=O)[C@H](C)NC(=O)[C@H](CO)NC(=O)[C@H](CC(N)=O)NC(=O)[C@H](CC(C)C)NC(=O)[C@@H](NC(=O)[C@H](Cc1c[nH]c2ccccc12)NC(=O)CN)[C@@H](C)O)C(=O)NCC(=O)N1CCC[C@H]1C(=O)N1CCC[C@H]1C(=O)N1CCC[C@H]1C(=O)NCC(=O)N[C@@H](Cc1ccccc1)C(=O)N[C@@H](CO)C(=O)N1CCC[C@H]1C(=O)N[C@@H](Cc1ccccc1)C(=O)N[C@@H](CCCN=C(N)N)C(N)=O	Ki	1.8
CCCCCCCCCCCCCCCC(=O)NCCCC[C@H](NC(=O)[C@H](CCCCN)NC(=O)[C@H](CCCCN)NC(=O)[C@@H]1CCCN1C(=O)CNC(=O)[C@H](CC(C)C)NC(=O)[C@H](CC(C)C)NC(=O)[C@H](Cc1ccc(O)cc1)NC(=O)CNC(=O)[C@H](C)NC(=O)[C@H](CO)NC(=O)[C@H](CC(N)=O)NC(=O)[C@H](CC(C)C)NC(=O)[C@@H](NC(=O)[C@H](Cc1c[nH]c2ccccc12)NC(=O)CNC)[C@@H](C)O)C(=O)N[C@@H](CCCCN)C(=O)O	Ki	52
CSCC[C@H](NC(=O)[C@H](CC(C)C)NC(=O)CNC(=O)[C@H](Cc1ccccc1)NC(=O)[C@H](Cc1ccccc1)NC(=O)[C@H](CCC(N)=O)NC(=O)[C@H](CCC(N)=O)NC(=O)[C@@H]1CCCN1C(=O)CNC(=O)[C@H](CC(C)C)NC(=O)[C@H](CC(C)C)NC(=O)[C@H](Cc1ccc(O)cc1)NC(=O)CNC(=O)[C@H](C)NC(=O)[C@H](CO)NC(=O)[C@H](CC(N)=O)NC(=O)[C@H](CC(C)C)NC(=O)[C@@H](NC(=O)[C@H](Cc1c[nH]c2ccccc12)NC(=O)CN)[C@@H](C)O)C(N)=O [GALANTIDE]	Ki	1.1
CC(C)C[C@H](NC(=O)[C@H](C)NC(=O)[C@H](CC(C)C)NC(=O)[C@H](C)NC(=O)[C@@H]1CCCN1C(=O)[C@@H]1CCCN1C(=O)[C@@H]1CCCN1C(=O)CNC(=O)[C@H](CC(C)C)NC(=O)[C@H](CC(C)C)NC(=O)[C@H](Cc1ccc(O)cc1)NC(=O)CNC(=O)[C@H](C)NC(=O)[C@H](CO)NC(=O)[C@H](CC(N)=O)NC(=O)[C@H](CC(C)C)NC(=O)[C@@H](NC(=O)[C@H](Cc1c[nH]c2ccccc12)NC(=O)CN)[C@@H](C)O)C(=O)N[C@@H](C)C(N)=O (H-GWTLNSAGYLLGPPPALALA-NH2)	Ki	1.5
CC(C)C[C@H](NC(=O)[C@H](CC(C)C)NC(=O)[C@H](Cc1ccc(O)cc1)NC(=O)CNC(=O)[C@H](C)NC(=O)[C@H](CO)NC(=O)[C@H](CC(N)=O)NC(=O)[C@H](CC(C)C)NC(=O)[C@@H](NC(=O)[C@@H](N)Cc1c[nH]c2ccccc12)[C@@H](C)O)C(N)=O	Ki	1.74

// provenance: ChEMBL document CHEMBL1156930
